# TARGET: Human immunodeficiency virus type 1 integrase (Human immunodeficiency virus 1, UniProt Q7ZJM1)
# Sequence (Q7ZJM1 whole entry): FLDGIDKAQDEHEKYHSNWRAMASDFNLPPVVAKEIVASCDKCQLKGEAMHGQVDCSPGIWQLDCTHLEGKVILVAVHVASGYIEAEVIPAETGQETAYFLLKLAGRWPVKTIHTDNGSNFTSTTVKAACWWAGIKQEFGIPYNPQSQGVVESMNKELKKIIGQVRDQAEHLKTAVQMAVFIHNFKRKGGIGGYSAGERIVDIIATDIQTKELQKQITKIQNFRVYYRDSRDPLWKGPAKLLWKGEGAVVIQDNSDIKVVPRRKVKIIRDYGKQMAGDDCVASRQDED
# PROTOCOL: Inhibition of wild type HIV1 integrase 3' processing activity
ENDPOINT: log10(IC50) (log10 of the value in µM)

INSERT INTO results (substance, experimental_result) VALUES
  ('H-ACWWAAIKQEF-OH', 1.95),
  ('H-TAYFLLILAGRW-NH2', 0.61),
  ('H-ASWWAGIKQEF-NH2', 2.47),
  ('H-AAWWAGIKQEF-OH', 2.44),
  ('H-ACWWAGIKQEF-NH2', 1.98),
  ('H-AAYFLLKLAGRW-OH', 2.00),
  ('H-TAYFLLKLAGRL-NH2', 2.50),
  ('H-TAYFLLKLAGAW-OH', 1.92),
  ('H-TAYFLLALAGRW-OH', 2.05),
  ('H-TAAFLLKLAGRW-OH', 2.29),
  ('H-ACWWAGIKQEA-OH', 2.39),
  ('H-TAYFALKLAGRW-OH', 2.06),
  ('H-ACWWAGIAQEF-OH', 1.79),
  ('H-ACGWAGIKQEF-NH2', 1.66),
  ('H-YFLLKL-NH2', 1.30);

---

# TARGET: Human immunodeficiency virus type 1 integrase (Human immunodeficiency virus 1, UniProt Q7ZJM1)
# PROTOCOL: Inhibition of wild type HIV1 integrase strand transfer activity
Below is a list of entries, each paired with its recorded IC50 value.
ENDPOINT: IC50 (µM)

INSERT INTO assay_data (substance, relation_operator, experimental_result) VALUES
  ('H-ACAWAGIKQEF-OH', '=', 34),
  ('H-TAYFLLKLAGAW-OH', '=', 80),
  ('H-ACWWAGIAQEF-OH', '=', 55),
  ('H-ESMNKELKKI-NH2', '>', 2000),
  ('H-VPRRKAKI-NH2', '>', 1000),
  ('H-ASWWAGIKQEF-NH2', '=', 163),
  ('H-ACWAAGIKQEF-OH', '>', 333),
  ('H-WKGPAKLLWK-NH2', '>', 1000),
  ('H-TASFLLKLAGRW-NH2', '=', 11),
  ('H-EEHEKYHSNW-NH2', '>', 2000),
  ('H-VHVASGY-NH2', '>', 2000),
  ('H-TAYFLLALAGRW-OH', '=', 56),
  ('H-ACWGAGIKQEF-NH2', '>', 333),
  ('H-VRDQAEHLKT-NH2', '>', 2000),
  ('H-GRWPVKT-NH2', '>', 2000),
  ('H-ACWWAAIKQEF-OH', '=', 43),
  ('H-FIHNFKRK-NH2', '>', 2000),
  ('H-ACWWAGIKQEF-NH2', '=', 56),
  ('H-ACWWAG-NH2', '=', 60),
  ('H-TAYFLLKLAGRL-NH2', '=', 38),
  ('H-TAYFLLILAGRW-NH2', '=', 3),
  ('H-KLAGRW-NH2', '>', 100),
  ('H-ACWWAGIKAEF-OH', '>', 333),
  ('H-HTDNGSNF-NH2', '>', 2000),
  ('H-YFLLKL-NH2', '=', 20);
